Cited source for all entries: patent US20240284907A1

# Test system: Seeds of Lettuce R. (Super-Jericho)
# PROTOCOL: Filter paper bioassay with lettuce seeds: germination and early plant development, Minimal Effective Concentration (MEC)
# Type: in vivo
# ASSAY CONDITIONS: lettuce seeds on filter paper, 0 to 1 mmol/l, visually assessed after 6 days
REPORTED ENDPOINT: Score (activity score of Minimal Effective Concentration, MEC)

>  <MOLECULE>
O=C(O)CCC(F)(F)c1cc(Cl)sc1Cl

>  <RESULT VALUE>
Moderate (0.1 mM)

$$$$
>  <MOLECULE>
N=C(NCCc1cc(Cl)sc1Cl)Nc1ccc(O)cc1

>  <RESULT VALUE>
Moderate (0.1 mM)

$$$$
>  <MOLECULE>
NCc1cc(Cl)sc1Cl

>  <RESULT VALUE>
weak

$$$$
>  <MOLECULE>
NCC(O)c1ccsc1 (stereo not drawn)

>  <RESULT VALUE>
weak

$$$$
>  <MOLECULE>
O=C(Nc1ccnc(Br)c1)c1ccnc(Br)c1

>  <RESULT VALUE>
Strong (0.01 mM)

$$$$

Required: Score (activity score of Minimal Effective Concentration, MEC), one value per molecule below.
1. O=C(O)C(F)(F)c1nc(Cl)sc1Cl
2. O=C(O)Cc1csc(-c2ncc(Cl)cc2F)n1
3. Cc1nsnc1CC(=O)O
4. O=C(O)C(F)(F)c1ccc(F)c(Br)n1
5. O=C(O)/C=C/c1sc(Cl)nc1Cl
6. O=C(O)C(F)(F)c1nc(F)c(F)cc1F
7. O=C(O)C(F)(F)c1cccc(Cl)n1
8. NC(N)=NCCCc1cc(Cl)sc1Cl

1. very strong
2. Moderate (0.1 mM)
3. Moderate (0.1 mM)
4. very strong
5. Moderate (0.1 mM)
6. Moderate (0.1 mM)
7. Strong (0.01 mM)
8. Strong (0.01 mM)

----------
Kindly supply the reported Average Herbicidal Effect, Chenopodium values for the records listed here.
# Tested on: Chenopodium
# PROTOCOL: Herbicidal effect on potted weeds, plant development score
# Type: in vivo
# ASSAY CONDITIONS: pre-emergence, soil application 1 mg/pot; scale 0 (dead plants) to 5 (healthy, as Control)
Numbers only.

Examples from the recorded data:
>  <COMPOUND>
O=C([O-])C(F)(F)c1csc(Cl)n1.[Na+] [compound 5666]

>  <MEASUREMENT TARGET>
Chenopodium

>  <REPORTED ENDPOINT>
Average Herbicidal Effect, Chenopodium

>  <RESULT VALUE>
0.0

$$$$
>  <COMPOUND>
CCOC(=O)C(F)(F)c1cc(Cl)sc1Cl [compound 5643]

>  <MEASUREMENT TARGET>
Chenopodium

>  <REPORTED ENDPOINT>
Average Herbicidal Effect, Chenopodium

>  <RESULT VALUE>
4.0

$$$$

Find the measured Average Herbicidal Effect, Chenopodium of O=C(O)C(F)(F)c1csc(C(F)(F)F)n1 [compound 5679] and report it.
1.5

----------
Can you tell me Average Herbicidal Effect, Chenopodium for the items I'm about to list?
# Test system: Chenopodium
# PROTOCOL: Herbicidal effect on potted weeds, plant development score
# Assay type: in vivo
# ASSAY CONDITIONS: pre-emergence, soil application 1 mg/pot; scale 0 (dead plants) to 5 (healthy, as Control)
Numbers only.

Some solved cases for reference:
>  <MOLECULE>
CCOC(=O)Cc1cccc(Br)n1 [compound 6635, ethyl 2-(6-bromopyridin-2-yl)acetate]

>  <Average Herbicidal Effect, Chenopodium>
0.5

$$$$
>  <MOLECULE>
CCOC(=O)Cc1cc(Cl)sc1Cl [compound 5668, ethyl (2,5-dichlorothiophen-3-yl)acetate]

>  <Average Herbicidal Effect, Chenopodium>
2.0

$$$$
>  <MOLECULE>
OCC(F)(F)c1cccc(Br)n1 [compound 6643]

>  <Average Herbicidal Effect, Chenopodium>
3.0

$$$$
>  <MOLECULE>
O=C(O)Cc1cc(Cl)sc1Cl [compound 586]

>  <Average Herbicidal Effect, Chenopodium>
1.5

$$$$

Tell me its Average Herbicidal Effect, Chenopodium given O=C(O)C(F)(F)c1nc(Cl)sc1Cl [compound 5667] as the entry.
0.0
